# Test details: yeast display, Sf9 membrane polyspecificity reagent, FACS + sequencing; frameworks hold sequencing errors
Value type: polyreactivity (PSR sort gate)

The cases that follow already have their polyreactivity (PSR sort gate) on record.
Sequence code	polyreactivity (PSR sort gate)
QVQVVESGGGLVQAGGSLGLSCAASGSIFGTNAMGWSRQAPGKERELVAAISSSGTSTYYADSVKGRFTISRDKAKNTDYLQMNSLKPEDTAVYYCAAATNWGGEYWGQGTQVTVSS	high polyreactivity
HVQRVESGGGLVQAGASLRLSCAASGGIFSYNAMGWYRQAPGKERELVAAISGTGGSTYYADSVKGRFTISRDNAMNTVYLQMNSLKPEDTAVYYCAADVEYKVFPGDYWGQGPQVTVSS	low polyreactivity
QVQLVESGGGLVQAGGSLRLSCAASGRTFLGYAMGWYRQAPGKERELVAAISGSGDRTYYADSVKGRFTISRDNAKNTVYLQMNSLKPEDTAVYYCNAVTVRYYASYYGRGMDYWGQGTQVTVSS	high polyreactivity
QVQLVESGGGLVQAGGSVRLSCAASGFSFRLYVLGWYRQAPGTERELVAAISSLGGSTYYADSVKGRFTISRDNAKYTVDLQMNSLKPEDTAVYYCAADRPRGRETVDYWGHGTQVTVSS	high polyreactivity
QVQLVESGGGLVQAGGSLRLSCAASGRTFVVYAMGWYRQAPGKERELVAAINWSGTSTYYADSVKGRFTISRDNAKNTVYLQMNSLKPEDTAVYYCAAVAGLGTYRRYGYWGQGTQVTVSS	high polyreactivity

// query Which polyreactivity (PSR sort gate) is reported for this sequence? QVQLVESGGGLVQAGGSLRLSCAATGSIFGIYTMGWDRQAPGKERELVAAIRRSGSTNYADSVKGRFTISRDNEKNTVYLQMNSLKPEDSAVYYCAADALSDEYDYWGQGTQVTVSS
// result low polyreactivity

// query I am curious: what polyreactivity (PSR sort gate) value has been reported for QVQLVESGGGLVEAGGSLRLSCAASGRIFRYNAMGWYRQAPGKEWELVAAITASGGRTYYADSVKGRFTISRDNAKNTVYLQMNSLKPDDTAVYYCAATAFDKLKVWYSYWRQGTQVTVSS ?
// result high polyreactivity

// query Tell me the measured polyreactivity (PSR sort gate) of QVQLVESGGGLVQAGGSLRLSCAPSGRIFTRYARGWYRQAPGKERELVAVITRSGGSTYYADSVKGRFTISRDNAKNTVYLQMNSLKPEDTAVYYCAAKYYGEMYYWGQGTHVTVSS , please.
// result low polyreactivity

// query # get_value(readout='polyreactivity (PSR sort gate)', item= QVQLVESGGGLVQAAGSLSLICAASGIIFQRSAKGWYRQAPVKERELVATLTISGGSTYYADSVKGRFTISREYAKNTVYLQMNRLKPEDTAVYYCAAALYYPTVRRRFGSDYYWGQGTQVTVSS )
// result low polyreactivity

// query Give the measured polyreactivity (PSR sort gate) of QVQLVESGGGLVQAGGSLRLSCAASGSIIGRYAMAWYRPAPGQVRELVAAISTGGGRTYYADSVKGRFTISRDNAKNTVYLQMNSLKAEDTAVYYCNAGPYKGWGRMDYWGQGTQVTVSS .
// result high polyreactivity

// query Bench note: what polyreactivity (PSR sort gate) did QVQLVESGGGLVQAGGSLGLSCAASGRTFSYYAMGWYRQAPGKERELVAAISASGGRTYYADSVKGRFTISRDNAKNTDYLQMNSLTPEDTAVYYCAAGSYQRYAFDYWGQGTQVTVSS show?
// result high polyreactivity
